Target: T1, canine NGF (canine, UniProt Q29074 110-229 (pig entry), limits assumed)
T1 construct: The protein was secreted from CHO cells and purified; also called cNGF; canine β-NGF
T1 chain: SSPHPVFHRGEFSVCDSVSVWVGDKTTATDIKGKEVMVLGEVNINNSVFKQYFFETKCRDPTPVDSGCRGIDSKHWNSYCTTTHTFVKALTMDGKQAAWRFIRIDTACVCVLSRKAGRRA
Experiment: SPR (Biacore T200), 100 nM mAb on NGF chip, similarity to parent mAb
REPORTED_PROPERTY: Percent Similarity Score (KD on cN) (%)
Numbers only, in %.

{"BINDER": "can9L12VL_T94A (antibody, V domains shown) VH: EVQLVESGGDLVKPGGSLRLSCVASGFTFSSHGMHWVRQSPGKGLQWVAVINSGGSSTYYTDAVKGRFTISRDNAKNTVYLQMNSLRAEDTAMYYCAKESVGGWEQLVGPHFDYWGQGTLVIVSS VL: QSVLTQPTSVSGSLGQRVTISCSGSTNNIGILGASWYQLFPGKAPKLLVYGNGNRPSGVPDRFSGADSGDSVTLTITGLQAEDEADYYCQSFDATLGAHVFGGGTHLTVL", "U": "%", "Percent Similarity Score (KD on cN)": 100}

API: the following record is the query input.
Find the measured Percent Similarity Score (KD on cN) of can9L12VL_T95A (antibody, V domains shown) VH: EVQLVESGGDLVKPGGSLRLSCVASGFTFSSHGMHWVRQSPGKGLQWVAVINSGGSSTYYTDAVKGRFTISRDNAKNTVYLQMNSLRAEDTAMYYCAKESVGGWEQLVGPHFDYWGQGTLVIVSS VL: QSVLTQPTSVSGSLGQRVTISCSGSTNNIGILGASWYQLFPGKAPKLLVYGNGNRPSGVPDRFSGADSGDSVTLTITGLQAEDEADYYCQSFDTALGAHVFGGGTHLTVL and report it.
100
